From: the RNAGym collection of RNA variant scans (doi:10.1126/science.aae0568)

Each entry below carries its reported yeast fitness.
B1: tRNA (parent)
chain: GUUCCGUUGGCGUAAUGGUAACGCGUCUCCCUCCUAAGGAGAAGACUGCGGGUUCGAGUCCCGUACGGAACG

Variants of: B1
Assay: yeast fitness relative to wild type (ratio to wild type); higher = fitter; tRNA-Arg(CCU), competitive growth, 37 C, YPD
This sample holds only a part of the variants without activity.
Write the number on its own, no unit after it.

Chain Sequence	Number
GUUCCGUUGGCGUAAUGGUAACGCGUCUCCCUCCUACGGAGAAGUCUGCGGGUUCGAGUCUCGUACGGAACG [A37C A45U C61U]	0.545

In plain terms, GUUACGUUGGCGUAAUGGUAACGCGUUUCCCUCCUAAGGAGAAGACUGCGGGUUCGAGUCCCGUAUGGAACG [C4A C27U C66U] has a documented yeast fitness of 0.66

Summary for this variant, GUUCCGUUGGCGUAGUGGUAACGCGUCUCCCUCCUAAGGAGAUGACUGCGGGUUCGCGUCCCGUACGGAACG [A15G A43U A57C] : yeast fitness is 0.559

Looking up GUUCCGUUGGCGUAAUGGUGACGCGUCUCCCUUCUAAGGAGAAGACUGCGGAUUCGAGUCCCAUACGGAACG [A20G C33U G52A G63A] , I found its yeast fitness recorded as 0.707

Item: GUUCCGUUGGCGUAAUGGUAACGCCUCUCCCUCCUAAGGCGAAGACUGUGGGUUCGAGUCCCGUACGGAACG [G25C A40C C49U] | yeast fitness: 0.76

// GUUCCGUUGGCGUAAUGGUGACGCGUCUCCCUCCUAAGGAGAAGACUGCGGGUUGGAGUCUCGUACGGAACG [A20G C55G C61U] : yeast fitness value = 0.534

According to the records, this variant GUUCCGUUGGCGUAAUGGUAACGCGUCCCCCUCGUAAGGGGAGGAGUGCGGAUUUGAGUCCCGUACGGAACG [U28C C34G A40G A43G C46G G52A C55U] displays yeast fitness of 0.613

Measured yeast fitness of GUUCCAUUGGCGUAAUGGUAACGCGUCUCCCUCCUAAGGAGAAGGCUGCGGGUUCGAGUCCCGUACGGAACG [G6A A45G] : 0.928

yeast fitness in this record for GUUCCAUUGGCGUAAUGGUAACGCGUCUCCCUCCUAAGGGGAAGACUGCGGGUUCGAGUCCCGUACGGAACG [G6A A40G] : 0.842

Entry GUUCCGUUGGCGUACUGGUAACGCAUCUCCCUCCUAAGGAGAAGACUGCGGGUUCGAGUCCCGUACGGAACG [A15C G25A] , yeast fitness reported as 1.02

Measured yeast fitness of GUUCCGUUGGCGUAAUGGUAACGCGACUCCCUCCUAAGGAGAAGACUGCGGCUUCGAGUCCCGUACGGAACG [U26A G52C] : 0.645

Per the records, this variant ( GUUUCGUUGGAGUAAUGGUAACGCGUCUCCCUCCUACGGAGAAGACUGCGGGUUCGAGUCCCGUACGGAACG [C4U C11A A37C] ) has yeast fitness equal to 0.569
